# assayComment: chemical genetic growth profiling, strain panel (AID 1159580);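 further: tested at 20 µM; growth read once vehicle control cultures reached saturation at 30 °C; 1 = growth at the plate median or of vehicle wells; lower values mean less growth of the strain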
# appliedConditions: S. cerevisiae deletion strains, growth OD, locus YJR043C, strain POL32, hits give low values
Screen size: about 5,500 compounds; about 2,000 (36%) were called active. About 18% were inconclusive and are not listed. Some of the results follow.
quantityMeasured: normalized growth
Write the value as a bare number.

Consider the reported normalized growth for these molecules:
molecule	normalized growth
Nc1nc(/C(=C/CC(=O)O)C(=O)N[C@@H]2C(=O)N3C(C(=O)O)=CCS[C@H]23)cs1	0.981
O=C(Nc1ccccc1)N1CCN(C(c2ccccc2)c2ccccc2)CC1	0.978
COC1=CC(C)[C@@H]2C[C@H]3OC(=O)C[C@H]4C(C)=C(OC)C(=O)C([C@@]34C)[C@@]2(C)C1=O (stereo partly specified)	1
O=C(O/N=C1/CCCc2[nH]c3ccccc3c21)c1ccc(Cl)cc1Cl	0.941
COc1ccccc1N1CCN(C(=O)C(C)Nc2ccccn2)CC1 (stereo unspecified)	1

Alright, here's another molecule for you.
The molecule listed as N#Cc1c(Cl)cccc1Cl has a reported normalized growth of 1.02

* * *

# assayComment: chemical genetic growth profiling, strain panel (AID 1159580)
# appliedConditions: S. cerevisiae deletion strains, growth OD, locus YOR001W, strain rrp6, hits give low values
In all, about 5,500 compounds went through this assay and about 2,000 (36%) were called active. Another 18% or so got no clear call; they are omitted. This is one part of the list.
Recorded normalized growth values for a group of molecules are listed next.
Lab note: jot the number down without any unit.

Use the examples below as a reference point.
molecule	normalized growth
O=C(O)c1ccccc1O	0.982
CC1CCCC(C)N1NC(=O)c1ccc(Cl)c(S(N)(=O)=O)c1 (configuration not stated)	1.02
Cc1ccc(-c2nc3ccc(C)cn3c2CC(=O)N(C)C)cc1	0.951
NC(=O)c1cc([N+](=O)[O-])cc([N+](=O)[O-])c1	0.984
NC(=O)c1ccccc1O	0.957
NCC(O)CC(=O)O (configuration not stated)	1.02

Next, consider the following molecule.
Entry CC(C)=CC1C(CO)C1(C)C (configuration not stated) , normalized growth reported as 1.01

* * *

Recorded normalized growth by entry
# assayComment: chemical genetic growth profiling, strain panel (AID 1159580)
# appliedConditions: S. cerevisiae deletion strains, growth OD, locus YGL248W, strain PDE1, hits give low values
Screen size: about 5,500 compounds; about 2,000 (36%) were called active. Inconclusive results (about 18%) are left out. The list shows a part of the results.

compound	quantityMeasured	experimentalResult
CO[C@@H]1[C@@H](OC(N)=O)[C@@H](O)[C@H](Oc2ccc3c(O)c(NC(=O)c4ccc(O)c(CC=C(C)C)c4)c(=O)oc3c2C)OC1(C)C	normalized growth	1.02 (inactive)

Looking up C[C@H]1O[C@@H](O[C@H]2[C@@H](O)C[C@H](O[C@H]3[C@@H](O)C[C@H](O[C@H]4CC[C@]5(C)C6C[C@@H](O)[C@]7(C)[C@@H](C8=CC(=O)OC8)CC[C@]7(O)C6CC[C@@H]5C4)O[C@@H]3C)O[C@@H]2C)C[C@H](O)[C@@H]1O (stereo partly drawn) , I found its normalized growth recorded as 1.02 (inactive)

Reported normalized growth of C/C=C(/C)C(=O)O[C@@H]1Cc2c(ccc3ccc(=O)oc23)OC1(C)C : 0.966 (inactive)

* * *

Reported normalized growth values for a set of compounds
# assayComment: chemical genetic growth profiling, strain panel (AID 1159580);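 further: tested at 20 µM; growth read once vehicle control cultures reached saturation at 30 °C; 1 = growth at the plate median or of vehicle wells; lower values mean less growth of the strain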
# appliedConditions: S. cerevisiae deletion strains, growth OD, locus YGR078C, strain PAC10, hits give low values
About 2,000 (36%) of roughly 5,500 compounds were called active. About 18% were inconclusive and are not listed. This is one part of the list.

compound	normalized growth
CCOC(=O)/C(C#N)=C/N=C(N/N=C\c1c(Cl)cccc1Cl)SC	0.996 (inactive)
COc1nc(NC(C)C)nc(NC(C)C)n1	1.02 (inactive)
CC(=O)c1ccc(S(=O)(=O)NC(=O)NC2CCCCC2)cc1	0.99 (inactive)
CCOC(=O)C1C(=O)C=C(c2cccs2)CC1c1ccc(OC)c(OC)c1Cl (stereo not drawn)	0.979 (inactive)

Summary for this compound, COc1cc(C(=O)N2CCOCC2)cc(OC)c1OC : normalized growth is 1 (inactive)

Entry CC(=O)OCC(=O)[C@@]1(O)CCC2C3C[C@H](C)C4=CC(=O)C=CC4(C)C3[C@@H](O)CC21C (stereo partly drawn) — recorded normalized growth = 0.996 (inactive)

The reported normalized growth of the compound COC(=O)NC(=S)Nc1ccccc1NC(=S)NC(=O)OC was 0.996 (inactive)

For this compound ( Cn1c(SCC(=O)N2CCOCC2)nnc1-c1ccc2ncccc2c1 ), measured normalized growth is 1.02 (inactive)

# normalized growth (compound: COC(OC)c1ccc(C#N)c(=S)[nH]1 ) is 0.989 (inactive)

Per the record, N#CC(=C(\N)Sc1ccccc1N)/C(C#N)=C(/N)Sc1ccccc1N has normalized growth of 0.99 (inactive)

Per the record, CC(=O)O[C@@H]1c2c(ccc3ccc(=O)oc23)OC(C)(C)[C@@H]1OC(=O)CC(C)C has normalized growth of 1 (inactive)

What the record says about CC1Cc2ccccc2N1NC(=O)c1ccc(Cl)c(S(N)(=O)=O)c1 (stereo not drawn) : normalized growth is 1.01 (inactive)

Value of measured normalized growth for the entry CSc1nc(NC(C)C)nc(NC(C)C)n1 : 1.01 (inactive)

Sure, the documented normalized growth for CC(=O)Oc1ccccc1C(=O)Oc1ccccc1C(=O)O is 1.01 (inactive)

In plain terms, C/C=C(/C)C(=O)O[C@@H]1Cc2c(ccc3ccc(=O)oc23)OC1(C)C has a documented normalized growth of 0.987 (inactive)

Note to self: normalized growth recorded for COc1cc(NC(=S)N2CCN(c3ccccc3OC)CC2)c(OC)cc1Cl was 1.01 (inactive)

// normalized growth lookup, compound = COc1ccccc1N1CCN(CCCCN2C(=O)c3ccccc3C2=O)CC1 , result: 0.985 (inactive)

Lab book: normalized growth of COc1ccccc1N1CCN(CCN(C(=O)c2ccc(F)cc2)c2ccccn2)CC1 noted as 1.01 (inactive)

Data point: NCCCN ; normalized growth = 1 (inactive)

* * *

# assayComment: chemical genetic growth profiling, strain panel (AID 1159580);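 further: tested at 20 µM; growth read once vehicle control cultures reached saturation at 30 °C; 1 = growth at the plate median or of vehicle wells; lower values mean less growth of the strain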
# appliedConditions: S. cerevisiae deletion strains, growth OD, locus YOR001W, strain rrp6
Among all 5,500 compounds or so, about 2,000 (36%) were called active. About 18% were inconclusive and are not listed. Cut-off read from the data, not from the text of the source: active = normalized growth mostly below about 0.91 (no sharp cut-off); inconclusive = no clear call, values can overlap the other calls; inactive = mostly above about 0.92. This is one part of the list.
Please answer using one outcome listed in label 1 (active), label 0 (inactive)

Some entries whose results are on file:
compound	answerLabel
CCC(=O)OCC(=O)[C@@]1(OC(=O)CC)[C@@H](C)CC2C3CCC4=CC(=O)C=C[C@]4(C)C3(F)[C@@H](O)C[C@@]21C (some centres undefined)	label 0
CCC(=O)O[C@]1(C(=O)CCl)[C@@H](C)CC2C3CCC4=CC(=O)C=C[C@]4(C)[C@@]3(F)[C@@H](O)C[C@@]21C (some centres undefined)	label 0
C=CCSCC=C	label 0
CC(C)c1cccc(O)c(=O)c1	label 1
Nc1ccc(S(=O)(=O)Nc2ncccn2)cc1	label 0
C=CCSSSCC=C	label 0

Please let me know the test result on file for CNC[C@H](O)c1cccc(O)c1 .
label 0

Recorded test outcome, item COc1cc(C(=O)N2CCOCC2)cc(OC)c1OC
label 0

Write down the call the test reported for this compound. Item: CCCCC(=O)O[C@]1(C(=O)CO)[C@@H](C)CC2C3CCC4=CC(=O)C=C[C@]4(C)[C@@]3(F)C(O)C[C@@]21C (some centres undefined)
label 0

* * *

// reported normalized growth for each item listed
# assayComment: chemical genetic growth profiling, strain panel (AID 1159580);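 further: tested at 20 µM; growth read once vehicle control cultures reached saturation at 30 °C; 1 = growth at the plate median or of vehicle wells; lower values mean less growth of the strain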
# appliedConditions: S. cerevisiae deletion strains, growth OD, locus YHR030C, strain SLT2, hits give low values
Hit rate of the full screen: of about 5,500 compounds, about 2,000 (36%) were called active. About 18% were inconclusive and are not listed. This is one part of the list.
Number only, no unit.

Below, 8 molecules whose answers are already recorded.
molecule	normalized growth
Cc1ccc(C(C)C)c(O)c1C(=O)O	0.97
O=C(Nc1ccccc1)N1CCN(C(c2ccccc2)c2ccccc2)CC1	0.963
CC(=O)O[C@@H]1CC2C(C)(C)CCC[C@]2(C)C2CC[C@]3(C)C(=CC(=O)O[C@H]3c3ccoc3)[C@@]21C (stereo not given in full)	1.02
CN(C)/C=C1\CSc2ccc(Cl)cc2C1=O	0.311
COc1ccccc1N1CCN(C(=O)C(C)Nc2ccccn2)CC1 (stereo not given)	0.952
COc1cc(C)c2c(=O)c3c(O)cc(OC)cc3oc2c1	1.01
COc1ccc(-c2cc(=O)c3c(O)cc(O)c(-c4cc(-c5cc(=O)c6c(O)cc(O)cc6o5)ccc4OC)c3o2)cc1	1.02
O=C(Nc1cc2ccccc2s1)N1CCN(Cc2c(F)cccc2Cl)CC1	0.938

For Cc1nnsc1C(=O)O/N=C1/CCSc2ccc(F)cc21 the molecule record lists normalized growth as 0.775

Record N/C(=N/OC(=O)Nc1cccc(C(F)(F)F)c1)c1ccc(OC(F)(F)F)cc1 , field normalized growth: 0.21
